SYSTEM: Aminopeptidase N (Plasmodium falciparum (isolate 3D7)) (UniProt O96935)
Sequence (O96935 whole entry, looked up): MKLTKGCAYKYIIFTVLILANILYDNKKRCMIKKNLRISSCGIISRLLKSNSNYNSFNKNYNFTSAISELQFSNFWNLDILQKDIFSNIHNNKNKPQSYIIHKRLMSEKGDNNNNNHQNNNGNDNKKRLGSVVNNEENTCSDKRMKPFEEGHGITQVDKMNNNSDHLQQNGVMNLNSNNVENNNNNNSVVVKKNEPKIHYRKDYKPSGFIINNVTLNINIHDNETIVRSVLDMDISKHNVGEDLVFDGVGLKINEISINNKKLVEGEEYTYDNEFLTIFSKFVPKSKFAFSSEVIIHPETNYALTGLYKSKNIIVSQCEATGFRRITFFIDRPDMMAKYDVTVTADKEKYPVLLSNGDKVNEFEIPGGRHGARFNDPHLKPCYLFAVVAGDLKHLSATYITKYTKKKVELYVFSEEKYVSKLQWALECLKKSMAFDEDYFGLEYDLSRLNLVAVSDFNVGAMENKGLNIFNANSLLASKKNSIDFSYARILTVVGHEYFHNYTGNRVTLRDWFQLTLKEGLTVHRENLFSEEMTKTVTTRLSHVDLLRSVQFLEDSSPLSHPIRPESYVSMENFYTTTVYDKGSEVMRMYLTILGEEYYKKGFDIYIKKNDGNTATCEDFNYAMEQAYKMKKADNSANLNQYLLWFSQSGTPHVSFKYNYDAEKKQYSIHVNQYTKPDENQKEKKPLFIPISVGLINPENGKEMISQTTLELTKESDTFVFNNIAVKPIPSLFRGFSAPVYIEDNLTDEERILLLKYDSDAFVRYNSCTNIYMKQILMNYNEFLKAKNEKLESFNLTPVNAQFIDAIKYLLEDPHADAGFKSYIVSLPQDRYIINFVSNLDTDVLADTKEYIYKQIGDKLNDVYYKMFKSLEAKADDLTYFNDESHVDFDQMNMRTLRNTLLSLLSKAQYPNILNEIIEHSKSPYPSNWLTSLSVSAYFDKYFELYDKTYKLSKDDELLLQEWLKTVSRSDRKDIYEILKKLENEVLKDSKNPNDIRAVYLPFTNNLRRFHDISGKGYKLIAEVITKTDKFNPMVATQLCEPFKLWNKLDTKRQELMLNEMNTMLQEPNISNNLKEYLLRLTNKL
ASSAY_NOTES: malaria alanyl aminopeptidase activity blockers – biochemical, fluorogenic H-Leu-NHMec substrate, 1536-well (AID 1445);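 also: plate controls were DMSO full reaction for no effect and no enzyme background for full effect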
EXPERIMENTAL_SETUP: recombinant M1AAP, H-Leu-NHMec fluorogenic kinetic assay; at 30 µM, active compounds read high unless noted
In all, about 220,000 compounds went through this assay and about 910 (0.41%) were called active. The full list was thinned out, with actives kept by preference. Entries with a potency or affinity are not part of this list.
OBSERVED_PROPERTY: inhibition (%)
// note: answer is a bare numeric in %

Request: Quick one: inhibition for COc1ccc(NC(=O)c2ccc(S(=O)(=O)N(C)C)cc2)cc1OC ?
Response: -1.14
